// cross-study collection: pIC50 for PIK3CD (Human)
pIC50: −log10 of the molar value.
Measurement type: pIC50

CN(CC(=O)NC1CCC(Oc2cc(-n3c(C(F)F)nc4ccccc43)nc(N3CCOCC3)n2)CC1)C1CCC1 (stereo not shown) : 8.32

(P) C=CC(=O)N(CCn1nc(-c2cc(O)c(F)c(F)c2)c2c(N)ncnc21)Cc1ccc(Cl)cc1
(Q) CCN(CC)CCOc1ccc(Nc2ncc3cc(C#N)c(=O)n(C4CCCC4)c3n2)cc1
// select label with min value of measured pIC50 from [ P , Q ] Please identify the chosen entry by its label. Q
(Q: 6.39, P: 7.91)

====

pIC50: −log10 of the molar value.
// cross-study collection: pIC50 for PIK3CD (Human) (UniProt O00329)
Measurement type: pIC50

C=CC(=O)N(CCn1nc(-c2cc(O)cc(F)c2)c2c(N)ncnc21)Cc1ccc(F)cc1 : 7.89

(a) COc1ncc(-c2nc(N3CCOCC3)nc3c(CN4CCC(N5CCCCC5=O)CC4)cc(F)cc23)cc1NS(C)(=O)=O
(b) COc1ncc(-c2nc(N3CCOCC3)c3nc(OC4CCOCC4)n(C)c3n2)cc1NS(C)(=O)=O
(c) CCN(CC)c1ncc2c(n1)-c1sc(NC(=O)N3CC[C@@H]4C[C@@]43C(N)=O)nc1CC2
Please rank these compounds by pIC50 in descending order. Ranked list of labels, please, in the requested order. b, a, c

====

// cross-study collection: IC50 for UniProt O00329
Measurement type: IC50 (nM)

Some solved cases for reference:
COc1ncc(-c2nc(N3CCOCC3)nc3c(CN4CC(C(C)(C)O)C4)cc(F)cc23)cc1NS(C)(=O)=O : 24
COc1ncc(-c2nc(N3CCOCC3)nc3c(CN4CC(N(C)C)C4)c(C)sc23)cc1NS(C)(=O)=O : 16

(A) COc1ncc(-c2nc(N3CCOCC3)nc3c(CN4CCC(C(=O)NCC(F)(F)F)CC4)csc23)cc1NS(C)(=O)=O
(B) FC[C@@H]1CCCN1[C@H]1CC[C@@H](CNc2cc(-n3c(C(F)F)nc4ccccc43)nc(N3CCOCC3)n2)CC1
// compare measured IC50, left A , right B , return larger Please identify the chosen entry by its label. B

====

// cross-study collection: IC50 for PIK3CD (Human)

Some solved cases for reference:
Cc1ccccc1-n1c(Cn2nc(-c3ccc(O)c(F)c3)c3c(N)ncnc32)cc2cccc(C)c2c1=O : < 100 nM
Cc1nn(C(C)c2cc(Cl)c(C#N)c3c2OC(C)CN(C2CN(C(=O)NC(C)C)C2)C3)c2ncnc(N)c12 (single isomer, unassigned) : ≤ 100 nM
COc1ncc(-c2nc(N3CCOCC3)nc3c(CN4CCC(C(C)(C)OC)CC4)csc23)cc1NS(C)(=O)=O : 2.7 nM
CC[C@H](Nc1nc(N)nc(C)c1C#N)c1nc2cccc(N3CCC(CCC(=O)NO)CC3)c2c(=O)n1-c1ccccc1 : < 100 nM
COc1ncc(-c2nc(N3CCOCC3)nc3c(CN4CCC(C(C)(C)O)CC4)cccc23)cc1NS(C)(=O)=O : 7.6 nM
Cc1cccnc1-n1c(Cn2nc(-c3cc(O)cc(F)c3)c3c(N)ncnc32)cc2cccc(C)c2c1=O : < 100 nM

PIK3CD (Human) assay, molecule Cc1csc2nc(Cn3nc(-c4ccc(O)cc4)c4c(N)ncnc43)n(-c3ccccc3F)c(=O)c12 , recorded IC50 = < 10000 nM

PIK3CD (Human) assay, molecule COc1ncc(-c2nc(N3CCOCC3)nc3c(CN4CCC(C(C)(C)O)CC4)csc23)cc1NS(=O)(=O)c1ccccc1 , recorded IC50 = 11.4 nM

PIK3CD (Human) assay, molecule Cc1ccccc1-n1c(Cn2nc(-c3ccc(O)c(Cl)c3)c3c(N)ncnc32)cc2cccc(C)c2c1=O , recorded IC50 = < 100 nM
